In this section we review reported pIC50 values for a set of binders.
Molecular target: T1, cynomolgus IL-17A (cynomolgus, UniProt Q16552 24-155 (human entry), limits assumed)
T1 construct: also called cyno IL-17A; cynoIL-17A
T1 chain: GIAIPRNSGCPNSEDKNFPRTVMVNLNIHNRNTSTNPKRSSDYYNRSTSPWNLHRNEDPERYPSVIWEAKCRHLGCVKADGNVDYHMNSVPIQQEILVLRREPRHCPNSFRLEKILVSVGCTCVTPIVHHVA
Experiment: competition ELISA: mAb against biotinylated cyno IL-17A binding to coated IL-17RA-Fc
# pIC50: negative log10 of molar concentration; output just the value

Worked examples, 2 binders total:
- binder: "mAb1926 (antibody, human IgG1, lambda, V domains shown, Framework-engineered mAb; also called mAbtr1926; engineered form of MOR7700) VH: QVQLLESGGGLVQPGGSLRLSCAASGFTFSSYAMSWVRQAPGKGLEWVSTISMTSGFTYYADSVKGRFTISRDNSKNTLYLQMNSLRAEDTAVYYCARQLMLDVWGQGTLVTVSS VL: QSVLTQPPSVSVAPGQTARISCSGDNLGDKYANWYQQKPGQAPVLVIYDDIDRPSGIPERFSGSNSGNTATLTISGTQAEDEADYYCGSYDFFLGMIVFGGGTKLTVLG"
  pIC50: 10.28
- binder: "mAb3077 (antibody, human IgG1, lambda, V domains shown, Framework-engineered mAb; also called engineered form of MOR7785) VH: QVQLVQSGAEVKKPGSSVKVSCKASGGTFSSYAISWVRQAPGQGLEWMGSIIPWFGWTNYAQKFQGRVTITADESTSTAYMELSSLRSEDTAVYYCARDSEYYFDHWGQGTLVTVSS VL: DIQMTQSPSSVSASVGDRVTITCRASQGISNWLNWYQQKPGKAPKLLIYAASSLQSGVPSRFSGSGSGTDFTLTISSLQPEDFATYYCQQYSDDPTFGQGTKVEIKG"
  pIC50: 10.27

What the record says about mAb6785 (antibody, human IgG1, lambda, V domains shown, Framework-engineered mAb; also called engineered form of MOR8302) VH: QVQLLESGGGLVQPGGSLRLSCAASGFTFSSYAMSWVRQAPGKGLEWVSTISLTSGFTYYADSVKGRFTISRDNSKNTLYLQMNSLRAEDTAVYYCARQLTLDVWGQGTLVTVSS VL: QSVLTQPPSVSVAPGQTARISCSGDNLGDKYANWYQQKPGQAPVLVIYDDIDRPSGIPERFSGSNSGNTATLTISGTQAEDEADYYCGSYDFFLGMIVFGGGTKLTVLG : pIC50 is 10.12
